Source: patent US9745317B2

molecular target: Human D1 Receptor (Homo sapiens (Human), UniProt P21728); experiment: Human D1 receptor binding assay ([^3H]-SCH23390 competition binding); details: read-out: Human D1 Receptor Binding, Ki (nM); Geometric mean of 2-4 determinations (unless otherwise indicated)
Sequence (P21728 whole entry): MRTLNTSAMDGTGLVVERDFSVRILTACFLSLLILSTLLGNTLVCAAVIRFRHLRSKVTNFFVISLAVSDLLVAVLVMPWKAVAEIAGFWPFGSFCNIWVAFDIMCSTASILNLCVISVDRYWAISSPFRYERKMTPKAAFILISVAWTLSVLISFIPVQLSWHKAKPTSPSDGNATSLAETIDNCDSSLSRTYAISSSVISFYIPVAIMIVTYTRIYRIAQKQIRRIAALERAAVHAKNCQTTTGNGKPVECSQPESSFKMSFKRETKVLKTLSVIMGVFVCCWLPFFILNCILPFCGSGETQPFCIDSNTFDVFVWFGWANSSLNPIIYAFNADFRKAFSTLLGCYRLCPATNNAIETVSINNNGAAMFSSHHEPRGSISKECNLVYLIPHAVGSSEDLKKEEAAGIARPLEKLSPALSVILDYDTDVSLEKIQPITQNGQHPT
Measured Ki accompanies every entry in the list below.
Write the answer as a number in nM, unit excluded.

Request: Look up and state reported Ki for Cc1cc(Oc2nccc3c2CCN3)ccc1-c1c(C)ncnc1C [Example 2]
Result: 78.1

Request: In one line, give reported Ki of the entry Cc1n[nH]c(=O)c(C)c1-c1ccc(Oc2ncnc3c2CCN3)cc1 [Example 11] .
Result: 60.4

Request: Specify Ki for Cc1cc(Oc2nccc3c2CCCN3)ccc1-c1c(C)n[nH]c(=O)c1C [Example 15] and stop.
Result: 18.1

Request: Return reported Ki. Input molecule: Cc1cc(Oc2nccc3c2C(O)CO3)ccc1-c1c(C)ncnc1C (stereo not drawn) [Example 17]
Result: 28.9

Request: Check the records and state Ki for Cc1n[nH]c(=O)c(C)c1-c1ccc(Oc2nccc3c2CCN3)cc1 [Example 4]
Result: 14

Request: Indicate the recorded Ki value for this molecule: Cc1cc(Oc2nccc3c2CCCO3)ccc1-c1c(C)n[nH]c(=O)c1C [Example 14]
Result: 70.3

* * *

biological target: Human D1 Receptor (Homo sapiens (Human)); assay: Human D1 receptor binding assay ([^3H]-SCH23390 competition binding); conditions: over-expressing LTK human cell lines; 0.5 nM [^3H]-SCH23390; 30 min at 37° C.; footnote a = single determination, b = geometric mean of ≧5 determinations; read-out: Human D1 Receptor Binding, Ki (nM); Geometric mean of 2-4 determinations (unless otherwise indicated)
Counter-ions that a name gives are not always drawn.
A collection of molecules and their measured Ki
Express your answer in nM, writing the number without its unit.

Use the examples below as a reference point.
MOLECULE	UOM	Ki
Cc1c(-c2ccc(Oc3nccc4c3CCN4)cc2)n(C)c(=O)[nH]c1=O	nM	11.1
Cc1cc(Oc2nccc3c2CCO3)ccc1-c1c(C)n[nH]c(=O)c1C [Example 5]	nM	14
Cc1n[nH]c(=O)c(C)c1-c1ccc(Oc2nccc3c2CCO3)cc1C#N	nM	162
Cc1cc(Oc2nccc3c2CCN3)ccc1-c1c(C)ncc(=O)n1C (single isomer, unassigned) [Example 25]	nM	75.8
Cc1c(-c2ccc(Oc3ncnc4c3CCC4)cc2)n(C)c(=O)[nH]c1=O	nM	202

Request: Read the entry Cc1cc(Oc2nccc3c2CCN3)ccc1-c1c(C)n[nH]c(=O)c1C (single isomer, unassigned; ent-1) [Example 9] and write its reported Ki.
Result: 35.6

Request: Report Ki for Cc1c(-c2ccc(Oc3ncnc4c3CCN4)cc2)n(C)c(=O)[nH]c1=O
Result: 44.4

Request: For the molecule Cc1cc(Oc2nccc3c2CCO3)ccc1-c1c(C)ncnc1C , report Ki.
Result: 76.8

Request: Give Ki for the following molecule: Cc1cc(Oc2nccc3c2CCO3)ccc1-c1c(C)n[nH]c(=O)c1C [Example 6]
Result: 12.6

Request: Consider the molecule Cc1cc(Oc2nccc3c2CCO3)ccc1-c1c(C)ncc(=O)n1C [Example 21] . State its measured Ki.
Result: 82.5

Request: Provide one value: measured Ki of Cc1cc(Oc2nccc3c2CCO3)ccc1-c1c(C)ncc2nccn12
Result: 52.1

Request: Supply measured Ki of Cc1cc(Oc2nccc3c2CCN3)ccc1-c1c(C)n[nH]c(=O)c1C [Example 8] in your reply.
Result: 8.4

Request: Give Ki for Cc1c(-c2ccc(Oc3nccc4c3CCO4)cc2)n(C)c(=O)[nH]c1=O [Example 13, trifluoroacetate salt]
Result: 46.1

Request: Find the measured Ki of Cc1cc(Oc2nccc3c2CCN3)ccc1-c1c(C)n[nH]c(=O)c1C (single isomer, unassigned; ent-2) [Example 10] and report it.
Result: 50.5

Request: Find the measured Ki of Cc1cc(Oc2nccc3c2CCO3)ccc1-c1c(C)ncc(=O)n1C (single isomer, unassigned) [Example 23] and report it.
Result: 706

Request: Look up and report measured Ki for this entry: Cc1cc(Oc2nccc3c2CCO3)ccc1-c1c(C)ncc(=O)n1C (single isomer, unassigned) [Example 22]
Result: 202

Request: For the molecule Cc1cc(Oc2nccc3c2C(O)CO3)ccc1-c1c(C)n[nH]c(=O)c1C (stereo not drawn) , give its reported Ki.
Result: 4.8

Request: Read off the recorded Ki for Cc1cc(Oc2ncnc3c2CCN3)ccc1-c1c(C)ncnc1C
Result: 156

Request: Indicate the recorded Ki value for this molecule: Cc1cc(Oc2nccc3c2CCN3)ccc1-c1c(C)ncc(=O)n1C (single isomer, unassigned) [Example 24]
Result: 201

Request: Provide Ki value for the following molecule: Cc1cc(Oc2ncnc3c2CCC3)ccc1-c1c(C)ncnc1C
Result: 446

Request: Report Ki, nothing else, for this molecule: Cc1cc(Oc2nccc3c2CCO3)ccc1-c1c(C)n[nH]c(=O)c1C [Example 7]
Result: 12.7
